System: HEK-293T
Test: Multiplex assay against HEK293T
Assay type: toxicity, cell-based
Conditions: human, 48 h, 10 µM, compound concentration 10 uM, replicate 2
Measured Population Mitochondria Different-Phenotype (%) accompanies every entry in the list below.
Give your result in % as a bare value.

Examples from the recorded data:
> print(dat)
                                   compound  unit  measured.number
1  C[C@@]1(C(=O)Nc2ccc(F)nc2)CCCN1c1nc(Nc2cc(C3CC3)n[nH]2)c2cccn2n1 [BMS-754807]     %               85
2  CN1CCC[C@@H]1CCO[C@](C)(c1ccccc1)c1ccc(Cl)cc1.O=C(O)/C=C/C(=O)O [CLEMASTINE FUMARATE]     %               83
3  Cl.N#Cc1ccc2[nH]cc(CCCCN3CCN(c4ccc5oc(C(N)=O)cc5c4)CC3)c2c1 [VILAZODONE HYDROCHLORIDE]     %               88
4  Cc1cc(C)cc(-c2cnc3cc(Cl)c(-c4cccc(O)c4)cc3c2OCCCN)c1     %               79

-- ask Any idea what Population Mitochondria Different-Phenotype (%) was measured for CN(C)C(=O)/C(C#N)=C/c1ccc(-c2nc3cnc4[nH]ccc4c3n2C2CCCCC2)o1 ?
-- reply 17

-- ask What would you report for CCOCCn1cc(C(=O)Nc2ccc(-n3nc(-c4cccnc4)cc3C(F)(F)F)cn2)ccc1=O [BI 1935] ?
-- reply 55

-- ask What would you report for CN1CCN(c2ccc(OC(F)(F)F)c(Nc3ncc4c(n3)-c3c(c(C(N)=O)nn3CCO)CC4)c2)CC1 [ONVANSERTIB] ?
-- reply 78

-- ask What would you report for C[C@@H](NCCCc1cccc(C(F)(F)F)c1)c1cccc2ccccc12.Cl [CINACALCET HYDROCHLORIDE] ?
-- reply 94

----------
System: U2OS
Assay: Multiplex assay against U2OS
Type: toxicity, cell-based
Conditions: human, 12 h, 1 µM, compound concentration 1 uM, replicate 2
Note to self: use 1 only for Population Tubulin-Different-Phenotype (%) readings below 30%; a reading exactly at 30% still gets -1.

Observe how each entry below is paired with its result.
> print(dat)
                                   compound  target.or.system  assigned.category
1  CN(C)CC#Cc1ccc(OCCCc2sc(N3CCc4cccc(C(=O)Nc5nc6ccccc6s5)c4C3)nc2C(=O)O)c(F)c1 [A-1155463]              U2OS                  1
2  C[C@@]1(C(=O)Nc2ccc(F)nc2)CCCN1c1nc(Nc2cc(C3CC3)n[nH]2)c2cccn2n1 [BMS-754807]              U2OS                 -1
3  O=C1NCN(c2ccccc2)C12CCN(CCCOc1ccc(F)cc1)CC2 [SPIRAMIDE]              U2OS                  1
4  Cc1nc(-c2ccc(-c3ccc(C(=O)N4CCc5cc6c(cc54)C4(CCN(C)CC4)CO6)cc3)c(C)c2)no1 [SB-224289]              U2OS                 -1
5  C[C@@H](NCCCc1cccc(C(F)(F)F)c1)c1cccc2ccccc12.Cl [CINACALCET HYDROCHLORIDE]              U2OS                 -1

-- ask Population Tubulin-Different-Phenotype (%) strictly < 30% for this compound? CN1CCN(c2ccc(OC(F)(F)F)c(Nc3ncc4c(n3)-c3c(c(C(N)=O)nn3CCO)CC4)c2)CC1 [ONVANSERTIB]
-- reply 1

-- ask What would you report for Cc1nc(Nc2n[nH]c3c2CN(C(=O)N[C@H](CN(C)C)c2ccccc2)C3(C)C)c2sccc2n1 [PF-03758309] ?
-- reply 1

-- ask What would you report for COc1ncc(-c2ccc3nccc(-c4ccnnc4)c3c2)cc1NS(=O)(=O)c1ccc(F)cc1F [OMIPALISIB] ?
-- reply 1

----------
Test system: Fibroblast
Assay: Multiplex assay against human fibroblast
Type: toxicity, cell-based
Conditions: 24 h, 1 µM, compound concentration 1 uM, replicate 2
measure.name: Population Pyknosed Nuclei (%)
Give your result in % as a bare value.

Examples from the recorded data:
> print(dat)
                                    molecule  unit  measured.number
 1  C[C@@H](NCCCc1cccc(C(F)(F)F)c1)c1cccc2ccccc12.Cl [CINACALCET HYDROCHLORIDE]     %               22
 2  COc1cc(-n2cnc3cc(-c4ccc(Cl)cc4)sc3c2=O)ccc1OCCN1CCCC1     %               12
 3  CN1CCCC(n2nc(Cc3ccc(Cl)cc3)c3ccccc3c2=O)CC1.Cl (configuration not stated) [AZELASTINE HYDROCHLORIDE]     %               15
 4  C=CC(=O)Nc1cc2c(Nc3ccc(F)c(Cl)c3)ncnc2cc1OCCCN1CCOCC1.Cl.Cl [CANERTINIB DIHYDROCHLORIDE]     %               14
 5  COc1ncc(-c2ccc3nccc(-c4ccnnc4)c3c2)cc1NS(=O)(=O)c1ccc(F)cc1F [OMIPALISIB]     %               16
 6  C=CC(=O)Nc1ccc2ncnc(Nc3ccc(OCc4cccc(F)c4)c(Cl)c3)c2c1.Cc1ccc(S(=O)(=O)O)cc1     %               10
 7  CN1CCN(CCOc2cc(OC3CCOCC3)c3c(Nc4c(Cl)ccc5c4OCO5)ncnc3c2)CC1 [SARACATINIB]     %               18
 8  C[C@@]1(C(=O)Nc2ccc(F)nc2)CCCN1c1nc(Nc2cc(C3CC3)n[nH]2)c2cccn2n1 [BMS-754807]     %               15
 9  C=CC(=O)Nc1cccc(C(=O)Nc2ccc(Nc3cc(-c4[nH]c(SC)nc4C)ccn3)cc2)c1     %                8
10  O=C1NCN(c2ccccc2)C12CCN(CCCOc1ccc(F)cc1)CC2 [SPIRAMIDE]     %                3

-- ask Give the reported Population Pyknosed Nuclei (%) for Cn1cc(-c2[nH]c3cc(NC(=O)[C@H](N)C4CCCCC4)cc4c3c2C=NNC4=O)cn1 (system: Fibroblast).
-- reply 15

-- ask What would you report for c1cn2cc(-c3ccc4cn[nH]c4c3)nc(Nc3ccc(N4CCOCC4)cc3)c2n1 [ENTOSPLETINIB] ?
-- reply 11

-- ask What would you report for Cc1nc(-c2ccc(-c3ccc(C(=O)N4CCc5cc6c(cc54)C4(CCN(C)CC4)CO6)cc3)c(C)c2)no1 [SB-224289] ?
-- reply 7

-- ask What would you report for CCN(CC)CCCCNc1ncc2cc(-c3cc(OC)cc(OC)c3)c(NC(=O)NC(C)(C)C)nc2n1 [PD-173074] ?
-- reply 43

-- ask What would you report for CNc1nc(NCc2ccc(NS(C)(=O)=O)cc2Cl)cc(-c2ccccn2)n1 ?
-- reply 5

-- ask What would you report for Cc1nc(-c2cn3c(n2)-c2ccc(-c4cnn(C(C)(C)C(N)=O)c4)cc2OCC3)n(C(C)C)n1 [TASELISIB] ?
-- reply 7

-- ask What would you report for Cc1cc(C)cc(-c2cnc3cc(Cl)c(-c4cccc(O)c4)cc3c2OCCCN)c1 ?
-- reply 13

----------
Test system: Fibroblast
Assay: Multiplex assay against human fibroblast
Type: toxicity, cell-based
Conditions: 24 h, 1 µM, compound concentration 1 uM, replicate 2
measure.name: Total Cell Count
Kindly provide the number alone.

Examples from the recorded data:
> print(dat)
                                   molecule  measured.number
1  CN1CCCC(n2nc(Cc3ccc(Cl)cc3)c3ccccc3c2=O)CC1.Cl (stereo not drawn) [AZELASTINE HYDROCHLORIDE]               57
2  CC(C)(O)CNc1ncc(-c2ccnc(Nc3ccnc(Cl)c3)n2)c(CC2CC2)n1              136
3  CN1CCN(c2ccc(OC(F)(F)F)c(Nc3ncc4c(n3)-c3c(c(C(N)=O)nn3CCO)CC4)c2)CC1               73
4  O=C1NCN(c2ccccc2)C12CCN(CCCOc1ccc(F)cc1)CC2 [SPIRAMIDE]               76
5  COc1ncc(-c2ccc3nccc(-c4ccnnc4)c3c2)cc1NS(=O)(=O)c1ccc(F)cc1F               50

-- ask Any idea what Total Cell Count was measured for CNc1nc(NCc2ccc(NS(C)(=O)=O)cc2Cl)cc(-c2ccccn2)n1 ?
-- reply 67

-- ask What would you report for Cc1nc(-c2ccc(-c3ccc(C(=O)N4CCc5cc6c(cc54)C4(CCN(C)CC4)CO6)cc3)c(C)c2)no1 ?
-- reply 73

-- ask What would you report for Cc1nc(-c2cn3c(n2)-c2ccc(-c4cnn(C(C)(C)C(N)=O)c4)cc2OCC3)n(C(C)C)n1 ?
-- reply 97
